Examples of compounds with documented Percent Effect follow.
target: Arginase-2, mitochondrial (Homo sapiens) (UniProt P78540); test: in vitro enzyme assay to detect the production of urea directly proportional to the activity of Arginase II; format: functional; design: scale not given: in the data most compounds retested in dose-response had high values; settings: 33.3 µM
Sequence (P78540 whole entry): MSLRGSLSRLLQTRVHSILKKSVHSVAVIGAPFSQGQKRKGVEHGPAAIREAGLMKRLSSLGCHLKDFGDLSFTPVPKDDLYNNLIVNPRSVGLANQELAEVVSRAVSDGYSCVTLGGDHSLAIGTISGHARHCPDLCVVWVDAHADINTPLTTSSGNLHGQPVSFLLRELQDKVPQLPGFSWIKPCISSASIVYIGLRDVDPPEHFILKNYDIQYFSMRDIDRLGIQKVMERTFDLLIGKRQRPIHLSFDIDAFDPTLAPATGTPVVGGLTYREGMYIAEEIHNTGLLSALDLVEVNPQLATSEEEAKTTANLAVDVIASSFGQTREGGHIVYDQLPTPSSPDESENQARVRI
Supply the numeric figure in %, leaving out any unit text.

Known Percent Effect results, listed for orientation:
| compound | targetOrSystem | measuredNumber |
| --- | --- | --- |
| O=c1c2ccccc2nc2n1C(CSc1ccc(Cl)cc1Cl)CN2 (stereo not drawn) | Arginase-2, mitochondrial (Homo sapiens) (UniProt P78540) | 5.94 |
| Cc1nccn1-c1cccc(C2CCCN2S(=O)(=O)c2cn(C)cn2)n1 (stereo not drawn) | Arginase-2, mitochondrial (Homo sapiens) (UniProt P78540) | -0.885 |
| CCOCC1CC2(CCN(C(=O)c3ccccn3)CC2)CO1 (stereo not drawn) | Arginase-2, mitochondrial (Homo sapiens) (UniProt P78540) | -3.64 |
| COc1cccc(-n2nnc(C(=O)N3CCNC(=O)C3)c2C)c1 | Arginase-2, mitochondrial (Homo sapiens) (UniProt P78540) | 0.41 |
| COCCN1CCN(Cc2cccc(OCC(N)=O)c2)CC1C (stereo not drawn) | Arginase-2, mitochondrial (Homo sapiens) (UniProt P78540) | -0.887 |

Ask | What value of Percent Effect on Arginase-2, mitochondrial (Homo sapiens) (UniProt P78540) does O=C(CC1CC1)N1C[C@@H]2CCN(c3cnccn3)C[C@@H]2C1 have?
Reply | 0.913

Ask | What value of Percent Effect on Arginase-2, mitochondrial (Homo sapiens) (UniProt P78540) does COc1cccc(CNc2cnn(C)c(=O)c2Cl)c1 have?
Reply | 6.65

Ask | What value of Percent Effect on Arginase-2, mitochondrial (Homo sapiens) (UniProt P78540) does Clc1ccccc1-c1nc(CNC2CCc3ncnn3C2)cs1 (stereo not drawn) have?
Reply | 0.41

Ask | What value of Percent Effect on Arginase-2, mitochondrial (Homo sapiens) (UniProt P78540) does COCC1CC2(CCN(Cc3ccc(OC)cc3)CC2)CN1C(C)C (stereo not drawn) have?
Reply | -4.05

Ask | What value of Percent Effect on Arginase-2, mitochondrial (Homo sapiens) (UniProt P78540) does Cc1cc(-c2nn(C)c(Cl)c2CN2Cc3ccccc3C(O)C2)no1 (stereo not drawn) have?
Reply | 20.6
